Readings of Emax for the listed molecules
- targetOrTestSystem: human mAChR M1 (Homo sapiens)
- Sequence (P11229 1-460): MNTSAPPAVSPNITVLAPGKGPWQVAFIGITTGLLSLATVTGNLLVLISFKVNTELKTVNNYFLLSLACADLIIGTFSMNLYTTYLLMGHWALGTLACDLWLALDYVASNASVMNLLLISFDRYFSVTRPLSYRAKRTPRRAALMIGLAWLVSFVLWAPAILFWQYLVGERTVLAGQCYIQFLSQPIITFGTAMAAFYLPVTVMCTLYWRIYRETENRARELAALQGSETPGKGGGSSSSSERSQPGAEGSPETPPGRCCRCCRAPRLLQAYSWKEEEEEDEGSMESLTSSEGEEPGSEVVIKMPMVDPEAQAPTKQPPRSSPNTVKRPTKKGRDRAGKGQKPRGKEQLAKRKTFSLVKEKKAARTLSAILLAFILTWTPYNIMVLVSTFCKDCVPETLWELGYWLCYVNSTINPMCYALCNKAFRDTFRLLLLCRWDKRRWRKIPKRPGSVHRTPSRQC
- assayProtocol: mAChR M1 cell-based functional assay: calcium mobilization, positive allosteric modulator mode (increase in EC20 acetylcholine response)
- assayContext: Table 2; human M1; read-out: Human M1 Emax (%)
experimentalReadout: Emax

{"molecule": "Cc1csc2c(Cc3ccc(-c4ccn(C)n4)cc3)cc(C(=O)N[C@H]3CCCC[C@@H]3O)nc12", "experimentalReadout": "Emax", "measuredResult": "65.5%"}
{"molecule": "O=C(N[C@H]1CCOC1)c1cc(Cc2ccc(-c3cncs3)cc2)c2sccc2n1", "experimentalReadout": "Emax", "measuredResult": "45.1%"}
{"molecule": "Cc1ccc(Cc2cc(C(=O)NC3CC(F)(F)C3)nc3ccsc23)cn1", "experimentalReadout": "Emax", "measuredResult": "58.4%"}
{"molecule": "Cc1nc(-c2ccc(Cc3cc(C(=O)NC4CCCCC4)nc4ccsc34)cc2)co1", "experimentalReadout": "Emax", "measuredResult": "74%"}
{"molecule": "COCCCNC(=O)c1cc(Cc2ccc(-c3nccs3)cc2)c2sccc2n1", "experimentalReadout": "Emax", "measuredResult": "75.3%"}
{"molecule": "Cn1ccc2nc(C(=O)N[C@H]3CCCC[C@@H]3O)cc(Cc3ccc(-c4nccs4)cc3)c21", "experimentalReadout": "Emax", "measuredResult": "52.5%"}
{"molecule": "Cn1cc(-c2ccc(Cc3cc(C(=O)N[C@H]4CCOC4)nc4ccsc34)cn2)cn1", "experimentalReadout": "Emax", "measuredResult": "80.8%"}
{"molecule": "Cn1ccc(-c2ccc(Cc3cc(C(=O)N[C@H]4CCOC[C@@H]4O)nc4ccsc34)cc2)n1", "experimentalReadout": "Emax", "measuredResult": "47%"}
{"molecule": "O=C(N[C@H]1CCCC[C@@H]1O)c1cc(Cc2ccc(-c3cncs3)cc2)c2sccc2n1", "experimentalReadout": "Emax", "measuredResult": "60.1%"}
{"molecule": "COCC(C)NC(=O)c1cc(Cc2ccc(-c3cncs3)cc2)c2sccc2n1 (centres unmarked)", "experimentalReadout": "Emax", "measuredResult": "59.1%"}
{"molecule": "Cc1ncc(Cc2cc(C(=O)N[C@@H]3CCCCC[C@H]3O)nc3ccsc23)cn1", "experimentalReadout": "Emax", "measuredResult": "83.4%"}
{"molecule": "CCOC(c1ccc(C)nc1)c1cc(C(=O)N[C@@H]2CCCC[C@H]2O)nc2ccsc12 (some centres unmarked)", "experimentalReadout": "Emax", "measuredResult": "87.7%"}
{"molecule": "Cc1ccc(C(=O)c2cc(C(=O)N[C@@H]3CCCC[C@H]3O)nc3ccsc23)cn1", "experimentalReadout": "Emax", "measuredResult": "41.6%"}
{"molecule": "Cn1ccc2nc(C(=O)N[C@@H]3CCOC3)cc(Cc3ccc(-c4cscn4)cc3)c21", "experimentalReadout": "Emax", "measuredResult": "72%"}
{"molecule": "Cc1nc(-c2ccc(Cc3cc(C(=O)N[C@@H]4CCC[C@H]4O)nc4ccsc34)cc2)co1", "experimentalReadout": "Emax", "measuredResult": "80.5%"}
{"molecule": "Cn1cc(-c2ccc(Cc3cc(C(=O)NC[C@@H]4CCCO4)nc4ccsc34)cn2)cn1", "experimentalReadout": "Emax", "measuredResult": "89.8%"}
{"molecule": "Cc1ncc(Cc2cc(C(=O)N[C@@H]3CCCCC[C@H]3O)nc3ccsc23)s1", "experimentalReadout": "Emax", "measuredResult": "82.8%"}
{"molecule": "Cc1ccc(Cc2cc(C(=O)NC3CCCCNC3=O)nc3ccsc23)cn1 (centres unmarked)", "experimentalReadout": "Emax", "measuredResult": "92.7%"}
{"molecule": "Cn1ccc2nc(C(=O)NC3CC(F)(F)C3)cc(Cc3ccc(-c4nccs4)cc3)c21", "experimentalReadout": "Emax", "measuredResult": "25.5%"}
{"molecule": "O=C(N[C@H]1CCOC[C@@H]1O)c1cc(Cc2ccc(-c3nccs3)cc2)c2sccc2n1", "experimentalReadout": "Emax", "measuredResult": "71.1%"}
{"molecule": "O=C(NC1CCS(=O)(=O)C1)c1cc(Cc2ccc(-n3cccn3)cc2)c2sccc2n1 (centres unmarked)", "experimentalReadout": "Emax", "measuredResult": "68.1%"}
{"molecule": "O=C(N[C@H]1CCCNC1)c1cc(Cc2ccc(-n3cccn3)cc2)c2sccc2n1", "experimentalReadout": "Emax", "measuredResult": "65.3%"}
{"molecule": "Cn1ccc2nc(C(=O)N[C@H]3CCC[C@@H]3O)cc(Cc3ccc(-c4nccs4)cc3)c21", "experimentalReadout": "Emax", "measuredResult": "58.6%"}

###

- targetOrTestSystem: human mAChR M1 (Homo sapiens)
- assayProtocol: mAChR M1 cell-based functional assay: calcium mobilization, positive allosteric modulator mode (increase in EC20 acetylcholine response)
- assayContext: Table 2; human M1; read-out: Human M1 EC50
pEC50: −log10 of the molar value.
experimentalReadout: pEC50

{"compound": "O=C(NC1CCCNC1=O)c1cc(Cc2ccc(C(F)(F)F)nc2)c2sccc2n1 (stereo not drawn) [Compound 97]", "experimentalReadout": "pEC50", "relationSign": "<", "measuredResult": 5.00}
{"compound": "Cc1ncc(Cc2cc(C(=O)N[C@H]3CC[C@@H]3O)nc3ccsc23)s1 [Compound 132]", "experimentalReadout": "pEC50", "relationSign": "<", "measuredResult": 5.00}
{"compound": "Cc1ccc(Cc2cc(C(=O)N[C@H]3CCOC3)nc3ccsc23)cn1 [Compound 263]", "experimentalReadout": "pEC50", "relationSign": "<", "measuredResult": 5.00}
{"compound": "O=C(NCC1CCCCO1)c1cc(Cc2ccc(-c3nccs3)cc2)c2sccc2n1 (stereo not drawn) [Compound 375]", "experimentalReadout": "pEC50", "relationSign": "<", "measuredResult": 5.00}
{"compound": "CO[C@@H]1CCCC[C@H]1NC(=O)c1cc(Cc2ccc(-n3cccn3)cc2)c2scc(C)c2n1 [Compound 119]", "experimentalReadout": "pEC50", "relationSign": "=", "measuredResult": 5.64}
{"compound": "O=C(c1cc(Cc2ccc(-n3cccn3)cc2)c2sccc2n1)N1[C@@H]2CC[C@H]1CC(O)C2 (stereo partly drawn) [Compound 80]", "experimentalReadout": "pEC50", "relationSign": "<", "measuredResult": 5.00}
{"compound": "O=C(N[C@H]1CCOC1)c1cc(Cc2ccc(-c3cscn3)cc2)c2sccc2n1 [Compound 208]", "experimentalReadout": "pEC50", "relationSign": "=", "measuredResult": 5.73}
{"compound": "Cc1csc2c(Cc3ccc(-n4cccn4)cc3)cc(C(=O)N[C@@H]3CCOC[C@H]3O)nc12 [Compound 117]", "experimentalReadout": "pEC50", "relationSign": "=", "measuredResult": 7.08}
{"compound": "Cc1csc2c(Cc3ccc(-c4ccn(C)n4)cc3)cc(C(=O)N[C@@H]3CCOC3)nc12 [Compound 305]", "experimentalReadout": "pEC50", "relationSign": "=", "measuredResult": 5.55}

###

# Emax per record follows
- targetOrTestSystem: human mAChR M1 (Homo sapiens)
- assayProtocol: mAChR M1 cell-based functional assay: calcium mobilization, positive allosteric modulator mode (increase in EC20 acetylcholine response)
- assayContext: Table 2; human M1; read-out: Human M1 Emax (%)

{"compound": "CC1CC(NC(=O)c2cc(Cc3ccc(-c4ccn(C)n4)nc3)c3c(ccn3C)n2)CC(C)O1 (centres unmarked) [Compound 506]", "Emax": "78.2%"}
{"compound": "O=C(NC1CCOC1)c1cc(Cc2ccc(-n3cccn3)cc2)c2sccc2n1 (centres unmarked) [Compound 440]", "Emax": "69.3%"}
{"compound": "Cn1ccc(-c2ccc(Cc3cc(C(=O)N[C@@H]4CCOC4)nc4ccsc34)cn2)n1 [Compound 418]", "Emax": "67%"}
{"compound": "O=C(NC1CCOCC1)c1cc(Cc2ccc(C(F)(F)F)nc2)c2sccc2n1 [Compound 89]", "Emax": "71.8%"}
{"compound": "Cc1nc(-c2ccc(Cc3cc(C(=O)N[C@@H]4CCCC[C@H]4O)nc4ccsc34)cc2)co1 [Compound 168]", "Emax": "82.6%"}
